Test system: Shigella flexneri
EXPERIMENT SUMMARY: growth AUC normalised to DMSO control (fraction of control); higher = less growth inhibition, active = hit call of the paper;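 active = AUC significantly below DMSO controls by Student t-fit with adjusted P under 0.01; inactive = not significantly reduced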
RECORDED CONDITIONS: 20 µM
Counter-ions that a name gives are not always drawn.
// allowed return values: true (1) (active), false (0) (inactive)

Example entries begin here.
[[record]]
compound = "CCCNC(C)C(=O)Nc1ccccc1C (stereo not given) [Prilocaine hydrochloride]"
class_assignment = "false (0)"

[[record]]
compound = "CC(C)NCC(O)COc1cccc2[nH]ccc12 (stereo not given) [Pindolol]"
class_assignment = "false (0)"

[[record]]
compound = "O=C(CCCCCCC(=O)Nc1ccccc1)NO [Vorinostat]"
class_assignment = "false (0)"

[[record]]
compound = "CC(C)(C)NCC(O)COc1cccc2c1CCC(=O)N2 (stereo not given) [Carteolol hydrochloride]"
class_assignment = "false (0)"

[[record]]
compound = "CC1(C)O[C@@H]2C[C@H]3[C@@H]4C[C@H](F)C5=CC(=O)CC[C@]5(C)[C@H]4[C@@H](O)C[C@]3(C)[C@]2(C(=O)CO)O1 [Flurandrenolide]"
class_assignment = "false (0)"

[[record]]
compound = "C[C@@H]1C[C@H]2[C@@H]3C[C@H](F)C4=CC(=O)C=C[C@]4(C)[C@@]3(F)[C@@H](O)C[C@]2(C)[C@@]1(O)C(=O)CO [Flumethasone]"
class_assignment = "false (0)"

[[record]]
compound = "CCOC(=O)c1ccc(OC(=O)CCCCCNC(=N)N)cc1 [Gabexate mesilate]"
class_assignment = "false (0)"

[[record]]
compound = "Cn1ccnc1S [Methimazole]"
class_assignment = "false (0)"


Proceed to the following item.
What did the test return for CCN1CCCC1CNC(=O)c1cc(S(=O)(=O)CC)c(N)cc1OC (stereo not given) [Amisulpride] ?
false (0)
